Consider the following molecules and their measured SI (CC50 L02/IC50 SW1990) readings.
tested on: SW1990 cells; experiment: In vitro anti-proliferative SRB assay, SW1990; format: cell-based, human; details: selectivity index, L02 vs SW1990
Returns: the value as a bare number; no unit string appended.

COc1cccc(OC)c1/C=C/C(=O)c1cccc(O)c1 :: 0.9
CCOc1ccc(C(=O)/C=C/c2c(OC)cccc2OC)cc1OC :: 5.8
COc1cccc(OC)c1/C=C/C(=O)c1ccccc1OCc1ccccc1 :: 5.2
COc1cccc(OC)c1/C=C/C(=O)c1ccccc1O :: 1.5
COc1cccc(OC)c1/C=C/C(=O)c1cccc(Br)c1 :: 3.6
COc1ccc(OC)c(C(=O)/C=C/c2c(OC)cccc2OC)c1 :: 1.8
COc1ccccc1C(=O)/C=C/c1c(OC)cccc1OC :: 0.9
COc1ccc(C(=O)/C=C/c2cc(OC)cc(OC)c2)cc1 :: 0.5
COc1cccc(OC)c1/C=C/C(=O)c1cccc(C)c1 :: 1.3
CCOc1cccc(C(=O)/C=C/c2c(OC)cccc2OC)c1 :: 1.6

Could you please provide reported SI (CC50 L02/IC50 SW1990) for COc1cccc(OC)c1/C=C/C(=O)c1cccc(Cl)c1 ? Thanks!
2.2

# return recorded SI (CC50 L02/IC50 SW1990) for entry CCOc1ccccc1C(=O)/C=C/c1c(OC)cccc1OC
4.8

For the molecule COc1ccc(C(=O)/C=C/c2c(OC)cccc2OC)cc1OC , give its measured SI (CC50 L02/IC50 SW1990) value.
2.9

Let me know recorded SI (CC50 L02/IC50 SW1990) for COc1cccc(OC)c1/C=C/C(=O)c1cccc(N)c1 , thanks.
4.3

Supply SI (CC50 L02/IC50 SW1990) value. Item: COc1cccc(OC)c1/C=C/C(=O)c1ccc(O)cc1
1.4

* * *

test system: HeLa cells; experiment: In vitro anti-proliferative SRB assay, HeLa; type: cell-based, human; details: selectivity index, HMLE vs HeLa
# Yes = SI (CC50 HMLE/IC50 Hela) below 1 (exclusive); No = SI (CC50 HMLE/IC50 Hela) at/above 1

Known results for molecules:
COc1cccc(OC)c1/C=C/C(=O)c1ccc(C)cc1 [b4] :: Yes
COc1cccc(OC)c1/C=C/C(=O)c1ccccc1 [b1] :: Yes

Threshold test, SI (CC50 HMLE/IC50 Hela) < 1: COc1cccc(OC)c1/C=C/C(=O)c1ccccc1O [b24]
Yes

Is SI (CC50 HMLE/IC50 Hela) strictly under 1 for the entry COc1cccc(OC)c1/C=C/C(=O)c1cccc(OCc2ccccc2)c1 [b12] ?
No

Confirm or reject: SI (CC50 HMLE/IC50 Hela) of COc1cccc(OC)c1/C=C/C(=O)c1cccc(C(F)(F)F)c1 [b41] lies strictly below 1
No

Threshold test, SI (CC50 HMLE/IC50 Hela) < 1: CCOc1cccc(C(=O)/C=C/c2c(OC)cccc2OC)c1 [b9]
Yes

Determine if COc1cccc(OC)c1/C=C/C(=O)c1ccccc1OCc1ccccc1 [b11] shows SI (CC50 HMLE/IC50 Hela) strictly lower than 1.
No

* * *

system: HepG2 cells; assay: In vitro anti-proliferative SRB assay, HepG2; format: cell-based, human; settings: selectivity index, L02 vs HepG2
Catalogue of SI (CC50 L02/IC50 HepG2) readings, one per entry.

COc1cccc(OC)c1/C=C/C(=O)c1ccc(C#N)cc1 :: >4.9
COc1cccc(OC)c1/C=C/C(=O)c1ccc(-c2ccccc2)cc1 :: 58.2
COc1cccc(OC)c1/C=C/C(=O)c1ccc(OCc2ccccc2)cc1 :: >4.6
COc1cccc(OC)c1/C=C/C(=O)c1ccccc1F :: >5.6
COc1cccc(OC)c1/C=C/C(=O)c1ccc(Cl)c(Cl)c1 :: >5.4
COc1ccc(C(=O)/C=C/c2c(OC)cccc2OC)cc1OC :: 5.6
COc1cccc(OC)c1/C=C/C(=O)c1ccc2c(c1)OCO2 :: 3.5
COc1cccc(OC)c1/C=C/C(=O)c1cccc(OCc2ccccc2)c1 :: >4.2

Name the recorded SI (CC50 L02/IC50 HepG2) of the molecule listed here: COc1cc(C(=O)/C=C/c2c(OC)cccc2OC)ccc1O
>103.1

Could you please provide reported SI (CC50 L02/IC50 HepG2) for CCOc1ccccc1C(=O)/C=C/c1c(OC)cccc1OC ? Thanks!
9.3

Specify measured SI (CC50 L02/IC50 HepG2) for COc1cccc(OC)c1/C=C/C(=O)c1ccc(Cl)cc1Cl .
>8.5
